# procedure-details: NCI Yeast Anticancer Drug Screen. Data for the rad50 strain (AID 155);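 also: 0% = growth of vehicle-only cultures of the same strain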
# assay-conditions: S. cerevisiae rad50 strain growth inhibition; at 50.0 µM; hits give high values
The panel holds about 79,000 compounds, 15% with a hit somewhere; the sample as a whole holds those more often.
For each record, write down the corresponding growth inhibition.
Answer format: numeric, % implied, no suffix.

Qu. For the molecule Cc1cc2c(c(C(N)=O)c1C)-c1cccc(F)c1C2=O , what growth inhibition is on record?
Ans. 77.4

Qu. For the molecule C[C@]12CC[C@H](O)CC1=CC[C@@H]1C2CC[C@]2(C)NC(=O)CCC12 (some centres not stated) , what growth inhibition is on record?
Ans. 46.9

Qu. For the molecule CC1=C2CCC3C(CCC4(C)C(C(C)CCCC(C)C)CCC34)C2(C)CCC1=O (configuration not stated) , what growth inhibition is on record?
Ans. 41

Qu. For the molecule COc1ccc(NC(=O)CCC(=O)C(C)C(=O)c2ccccc2)cc1 (configuration not stated) , what growth inhibition is on record?
Ans. 59.8

Qu. For the molecule CC1(C)C(=O)N(CCCCCCN2C(=O)C(C)(C)c3ccccc32)c2ccccc21 , what growth inhibition is on record?
Ans. 79.5

Qu. For the molecule Brc1ccc(N=Nc2ccc(-c3ccc[cH-]3)cc2)cc1.[Fe+2].c1cc[cH-]c1 , what growth inhibition is on record?
Ans. 16.1

Qu. For the molecule O=C1C(Cl)=C(N2C(=O)CCC2=O)C(=O)c2ccccc21 , what growth inhibition is on record?
Ans. 87.6

Qu. For the molecule CCOC(=O)C(=C=Cc1cccs1)C(=O)c1ccccc1 , what growth inhibition is on record?
Ans. 87

Qu. For the molecule CCN(CC)C(C)(C)C(=O)/C=C/c1ccc(Cl)cc1 , what growth inhibition is on record?
Ans. 2.2

Qu. For the molecule O=C(CC(c1ccccc1)c1ccccc1)NCCCCN1CCCCCCC1 , what growth inhibition is on record?
Ans. 12

Qu. For the molecule COC(=O)/C=C(\Cl)C(=O)OC , what growth inhibition is on record?
Ans. 99.3

Qu. For the molecule Cc1cc2ccccc2c[n+]1Cc1ccc2ccccc2n1 , what growth inhibition is on record?
Ans. 53.6

* * *

# procedure-details: NCI Yeast Anticancer Drug Screen. Data for the sgs1 mgt1 strain (AID 161);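 also: 0% = growth of cultures given vehicle only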
# assay-conditions: S. cerevisiae sgs1 mgt1 strain, at 5.0 µM (retest, dose inferred, filed as 0.5), hits give high values
About 79,000 compounds went through this panel and 15% of them were active in at least one assay; those are over-represented in the sample as a whole.
result-type: growth inhibition (%)
Answer format: numeric, % implied, no suffix.

Qu. For the compound O=C1CSC(=S)N1c1ccc(F)cc1F , what growth inhibition is on record?
Ans. 10

Qu. For the compound Nc1ncnc2c1c(-c1ccccc1)cn2-c1ccc(Br)cc1 , what growth inhibition is on record?
Ans. 47

Qu. For the compound CCCOC1=C(Cl)C(=O)c2cccc([N+](=O)[O-])c2C1=O , what growth inhibition is on record?
Ans. 81

Qu. For the compound C(=P(c1ccccc1)(c1ccccc1)c1ccccc1)[P+](c1ccccc1)(c1ccccc1)c1ccccc1 , what growth inhibition is on record?
Ans. 99

Qu. For the compound CCCCN(C(=O)c1ccccc1)C1CCC(=O)c2[nH]c3ccccc3c21 (stereo unspecified) , what growth inhibition is on record?
Ans. -7

Qu. For the compound COc1ccc2c(c1)[n+]([O-])c(-c1ccc(Cl)cc1)c(N)[n+]2[O-] , what growth inhibition is on record?
Ans. 39

Qu. For the compound CC(C)NC(=O)CN1C(=O)NC(C)(c2ccccc2)C1=O (stereo unspecified) , what growth inhibition is on record?
Ans. -4

Qu. For the compound COC(=O)c1nc(Cl)nc(Cl)c1N , what growth inhibition is on record?
Ans. 11

Qu. For the compound CC[C@@]1(OP(=O)(O)O)C(=O)OCc2c1cc1n(c2=O)Cc2cc3ccccc3nc2-1 , what growth inhibition is on record?
Ans. 6

Qu. For the compound O=S1Nc2ccccc2S1 (stereo unspecified) , what growth inhibition is on record?
Ans. 2

Qu. For the compound CN1CCN(CCCN)CC1 , what growth inhibition is on record?
Ans. -4

Qu. For the compound Oc1cc(O)c2c(c1)OC(c1ccc(O)c(O)c1)C(OC1(c3cc(O)c(O)c(O)c3)Oc3cc(O)cc(O)c3C(O)C1O)C2 (stereo unspecified) , what growth inhibition is on record?
Ans. -14

Qu. For the compound O=S(=O)(Nc1ccc2c3c(cccc13)C=C2)c1ccccc1 , what growth inhibition is on record?
Ans. -7

Qu. For the compound CC1C=CC(C)C2C(=O)C3C(C)C=CC(C)C3C(=O)C12 (stereo unspecified) , what growth inhibition is on record?
Ans. -1

Qu. For the compound Cc1ccc(C)c2c3c([nH]c12)-c1ccccc1CC3 , what growth inhibition is on record?
Ans. -4

Qu. For the compound C/C=C/C(=O)N1c2ccccc2CC1c1c(C)[nH]c2ccccc12 (stereo unspecified) , what growth inhibition is on record?
Ans. 3

* * *

# procedure-details: NCI Yeast Anticancer Drug Screen. Data for the bub3 strain (AID 167)
# assay-conditions: S. cerevisiae bub3 mutant strain, at 50.0 µM
This is part of a sample that, as a whole, favours compounds with a hit. Of some 79,000 tested, about 15% had one in any assay. The source made the active and inactive calls. Cut-off read from the data, not from the text of the source: active = growth inhibition above about 70%; inactive = the rest.
// allowed return values: TRUE = active, FALSE = inactive

Qu. Could you check what this test reported for COc1cc(CSc2ccc(O)cc2)cc(OC)c1OC ?
Ans. TRUE

Qu. Could you check what this test reported for C=C1C(=O)OC(CCCCCCCCCCCCC)C1C(=O)O (stereo not drawn) ?
Ans. TRUE

Qu. Could you check what this test reported for O=C1c2ccccc2C(=O)[C@@]23O[C@@]12C1(Oc2cccc4cccc(c24)O1)[C@@H]1O[C@@H]1[C@@H]3O ?
Ans. TRUE

Qu. Could you check what this test reported for CNCC(OB(c1ccccc1)c1ccccc1)c1ccccc1 (stereo not drawn) ?
Ans. FALSE

Qu. Could you check what this test reported for C=C1C(=O)O[C@@H]2C[C@@]3(C)CCC[C@H](C)C3=C[C@H]12 ?
Ans. TRUE

Qu. Could you check what this test reported for C/C(=N/NC(N)=S)C(CN(C)C)C(C1=C(O)c2ccccc2OC1)c1ccccc1 (stereo not drawn) ?
Ans. FALSE

Qu. Could you check what this test reported for NC(=O)c1ccc[n+](CC(=O)Nc2ccc(Cl)cc2)c1 ?
Ans. FALSE

Qu. Could you check what this test reported for CC1CC(N)=NC1C(=O)NCCC#N (stereo not drawn) ?
Ans. FALSE

Qu. Could you check what this test reported for CCN(CCO)CC1OC(OC)C2OC(C)(C)OC12 (stereo not drawn) ?
Ans. FALSE

Qu. Could you check what this test reported for O=[N+]([O-])c1ccccc1NC1CCN(CCCC2(c3ccc(F)cc3)OCCO2)CC1 ?
Ans. FALSE

Qu. Could you check what this test reported for CCNC(=O)NNc1ncnc2c1c(-c1ccc(Cl)cc1)cn2-c1ccc(C)cc1 ?
Ans. FALSE

Qu. Could you check what this test reported for FC(F)(F)c1[nH]nc(-c2cccs2)c1N=NN1CCOCC1 ?
Ans. TRUE

Qu. Could you check what this test reported for CC(=O)N1c2ccccc2Sc2ccc(C(=O)CCl)cc21 ?
Ans. TRUE

Qu. Could you check what this test reported for O=C(O)C(S(=O)(=O)O)S(=O)(=O)O ?
Ans. TRUE

Qu. Could you check what this test reported for O=C(C=P(c1ccccc1)(c1ccccc1)c1ccccc1)c1ccccc1-c1ccccc1C(=O)C=P(c1ccccc1)(c1ccccc1)c1ccccc1 ?
Ans. TRUE

Qu. Could you check what this test reported for CC1=C(\C=C/C(C)=N/N=C(C)\C=C\C2=C(C)CCCC2(C)C)C(C)(C)CCC1 ?
Ans. FALSE

Qu. Could you check what this test reported for Nc1cc(F)c2c(c1F)C(=O)c1cc(F)ccc1-2 ?
Ans. FALSE

Qu. Could you check what this test reported for Cc1ccccc1C[n+]1ccccc1Br ?
Ans. FALSE

Qu. Could you check what this test reported for CCCCCCCCCCCCCCCC[N+](C)(C)c1ccccc1 ?
Ans. TRUE

Qu. Could you check what this test reported for C(=P(c1ccccc1)(c1ccccc1)c1ccccc1)[P+](c1ccccc1)(c1ccccc1)c1ccccc1 ?
Ans. TRUE

Qu. Could you check what this test reported for CCOc1nc(N)nc(C)c1N=Nc1ccc(Cl)cc1Cl ?
Ans. TRUE

Qu. Could you check what this test reported for Cc1ccc(-n2c(CSc3ccc(Cl)cc3)nnc2SCc2nc3ccccc3[nH]2)cc1 ?
Ans. FALSE

Qu. Could you check what this test reported for ClC/C=C/c1ccccc1 ?
Ans. FALSE

* * *

For each record, write down the corresponding growth inhibition.
# procedure-details: NCI Yeast Anticancer Drug Screen. Data for the mlh1 rad18 strain (AID 175)
# assay-conditions: S. cerevisiae mlh1 rad18 strain growth inhibition; at 50.0 µM; hits give high values
Compounds without any hit were thinned out: in the full panel of roughly 79,000, 15% have a hit.
Answer format: numeric, % implied, no suffix.

Qu. For the molecule COc1ccc2c3c(ccc2c1)NC(C(=O)O)CC3 (centres undefined) , what growth inhibition is on record?
Ans. 61.1

Qu. For the molecule O=C(NCCCCCCNC(=O)n1cc(F)c(=O)[nH]c1=O)NC1C(O)OC(CO)C(O)C1O (centres undefined) , what growth inhibition is on record?
Ans. 88.2

Qu. For the molecule CC(Nc1ccc(Cl)c(Cl)c1)c1ccncc1 (centres undefined) , what growth inhibition is on record?
Ans. 82.6

Qu. For the molecule CCCCN(CCCC)CC(O)c1cc(-c2ccc(Cl)cc2)nc2c(Cl)cccc12 (centres undefined) , what growth inhibition is on record?
Ans. 99.3

Qu. For the molecule CCC(=NCCCCCCN=C(CC)c1cc(C)cc([N+](=O)[O-])c1O)c1cc(C)cc([N+](=O)[O-])c1O.[Fe] , what growth inhibition is on record?
Ans. 80.8

Qu. For the molecule CC(C)=CCC/C(=C/CC/C(C)=C/CCc1ccoc1)C(=O)O , what growth inhibition is on record?
Ans. 62.3

Qu. For the molecule CCCN1CN(C(C(=O)N[C@@H]2C(=O)N3C(C(=O)O)=C(C)CSC23)c2ccccc2)CSC1=S (some centres undefined) , what growth inhibition is on record?
Ans. 1.5

Qu. For the molecule COc1ccc(NC(=O)Nc2ccc(Cl)cc2)nn1 , what growth inhibition is on record?
Ans. -3.9

Qu. For the molecule Oc1cc(Cl)cc2cc(Cl)cnc12 , what growth inhibition is on record?
Ans. 82.3

Qu. For the molecule O=C(C=P(c1ccccc1)(c1ccccc1)c1ccccc1)c1ccccc1-c1ccccc1C(=O)C=P(c1ccccc1)(c1ccccc1)c1ccccc1 , what growth inhibition is on record?
Ans. 90.4

Qu. For the molecule COc1ccc(N=NN(C)C)cc1 , what growth inhibition is on record?
Ans. 94.6

Qu. For the molecule CC(=O)Oc1c(-c2ccccc2)cc([N+](=O)[O-])cc1[N+](=O)[O-] , what growth inhibition is on record?
Ans. 91.7

Qu. For the molecule CCCCCCCCCCCCNC(=O)c1cc[n+](Cc2ccc(Cl)c(Cl)c2)cc1 , what growth inhibition is on record?
Ans. 99

Qu. For the molecule Oc1c(C(Nc2ccccn2)c2ccccc2)ccc2cccnc12 (centres undefined) , what growth inhibition is on record?
Ans. 94.5

The reported numbers originate from PubChem BioAssay (NCI).
